# Tgt: human thrombin (Homo sapiens)
# Construct: purified human thrombin Enzyme Research Laboratories, South Bend, Ind; purchased Enzyme Research Laboratories, South Bend, Ind
# Assay explanation: Inhibition of amidase activity of thrombin (chromogenic substrate), Kass
# Format: biochemical
# Run parameters: substrate N-benzoyl-Phe-Val-Arg-p-nitroanilide, pH 7.4
# cutoff 400 L/mol × 10^6 applies to Enzyme Kass, Human Thrombin; >= gives Criterion met, < gives Criterion not met

>  <Molecule>
CS(=O)(=O)N[C@H](Cc1ccccc1)C(=O)N1CCC[C@H]1C(=O)N[C@H](C=O)CCCNC(=N)N.Cl [Example 7, MeSO2 -D-Phe-Pro-Arg-H.HCl]

>  <Category label>
Criterion met

$$$$

Now look at this entry.
Reported Enzyme Kass, Human Thrombin reaches at least 400 L/mol × 10^6 for CCOC(=O)N[C@H](CC1CCCCC1)C(=O)N1CCC[C@H]1C(=O)N[C@H](C=O)CCCN=C(N)N.Cl [Example 34, EtOCO-D-Cha-Pro-Arg-H.HCl] ?
Criterion not met

* * *

# Test system: Human Plasma
# Assay explanation: Anticoagulation in human plasma, thrombin time (TT)
# Assay type: biochemical
# Run parameters: concentration required to double the thrombin time
Non-standard residues stand in square brackets, D forms with d. Residues, ends and D or L forms follow the SMILES beside them. dCha = N[C@H](CC1CCCCC1)C(=O)O
Parameter measured: 2 × Clotting time, TT (ng/mL)
Give bare numbers, in ng/mL.

Check out these entries, answers already filled in.
>  <Compound>
CCCN(CCC)S(=O)(=O)c1ccc(C(=O)N[C@H](Cc2ccccc2)C(=O)N2CCC[C@H]2C(=O)N[C@H](C=O)CCCNC(=N)N)cc1.Cl

>  <Tgt>
Human Plasma

>  <2 × Clotting time, TT [ng/mL]>
150

$$$$
>  <Compound>
CCS(=O)(=O)N[C@H](Cc1ccccc1)C(=O)N1CCC[C@H]1C(=O)N[C@H](C=O)CCCNC(=N)N.Cl [Example 8, EtSO2 -D-Phe-Pro-Arg-H-HCl]

>  <Tgt>
Human Plasma

>  <2 × Clotting time, TT [ng/mL]>
9

$$$$

Now examine the next entry.
Read off the recorded 2 × Clotting time, TT for CC(=O)N[C@H](CC1CCCCC1)C(=O)N1CCC[C@H]1C(=O)N[C@H](C=O)CCCNC(=N)N.Cl [Example 28, Ac-D-Cha-Pro-Arg-H.HCl] (Ac-[dCha]-Pro-Arg-aldehyde)
92

* * *

# Tgt: tissue plasminogen activator (t-PA) (Homo sapiens)
# Construct: purchased American Diagnostics, Greenwich, Conn
# Sequence (P00750 36-562): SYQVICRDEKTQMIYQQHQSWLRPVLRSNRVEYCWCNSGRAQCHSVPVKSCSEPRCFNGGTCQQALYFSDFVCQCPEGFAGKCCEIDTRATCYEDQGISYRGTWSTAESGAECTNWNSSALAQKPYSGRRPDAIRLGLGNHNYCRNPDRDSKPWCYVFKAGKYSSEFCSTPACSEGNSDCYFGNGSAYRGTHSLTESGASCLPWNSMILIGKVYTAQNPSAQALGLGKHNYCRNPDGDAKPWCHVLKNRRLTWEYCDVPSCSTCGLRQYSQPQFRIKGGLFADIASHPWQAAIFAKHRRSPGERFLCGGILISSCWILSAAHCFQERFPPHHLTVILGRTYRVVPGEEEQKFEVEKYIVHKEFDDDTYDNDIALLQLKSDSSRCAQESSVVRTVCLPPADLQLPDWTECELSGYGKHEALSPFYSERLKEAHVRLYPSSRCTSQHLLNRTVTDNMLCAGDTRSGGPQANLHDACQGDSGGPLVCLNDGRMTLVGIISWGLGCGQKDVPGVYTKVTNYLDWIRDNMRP
# Assay explanation: Serine protease inhibition, t-PA (chromogenic substrate), Kass
# Format: biochemical
# Run parameters: substrate H-D-Ile-Pro-Arg-p-nitroanilide
Kindly state Enzyme Kass, t-Pa for each of the entries shown.
Don't forget the unit after the value.

Some solved entries appear below for comparison.
>  <Compound>
CCS(=O)(=O)N[C@H](Cc1ccccc1)C(=O)N1CCC[C@H]1C(=O)N[C@H](C=O)CCCNC(=N)N.Cl [Example 8, EtSO2 -D-Phe-Pro-Arg-H-HCl]

>  <Tgt>
tissue plasminogen activator (t-PA) (Homo sapiens)

>  <Parameter measured>
Enzyme Kass, t-Pa

>  <Observed measurement>
2.9 L/mol × 10^6

$$$$
>  <Compound>
CS(=O)(=O)N[C@H](Cc1ccccc1)C(=O)N1CCC[C@H]1C(=O)N[C@H](C=O)CCCNC(=N)N.Cl [Example 7, MeSO2 -D-Phe-Pro-Arg-H.HCl]

>  <Tgt>
tissue plasminogen activator (t-PA) (Homo sapiens)

>  <Parameter measured>
Enzyme Kass, t-Pa

>  <Observed measurement>
13 L/mol × 10^6

$$$$
>  <Compound>
CCOC(=O)N[C@H](Cc1ccccc1)C(=O)N1CCC[C@H]1C(=O)N[C@H](C=O)CCCNC(=N)N.Cl [Example 33, EtOCO-D-Phe-Pro-Arg-H.HCl]

>  <Tgt>
tissue plasminogen activator (t-PA) (Homo sapiens)

>  <Parameter measured>
Enzyme Kass, t-Pa

>  <Observed measurement>
2.5 L/mol × 10^6

$$$$
>  <Compound>
Cl.N=C(N)NCCC[C@@H](C=O)NC(=O)[C@@H]1CCCN1C(=O)[C@@H](Cc1ccccc1)NC(=O)C1CCCCC1 [Example 27, cyclohexyl-CO-D-Phe-Pro-Arg-H.HCl]

>  <Tgt>
tissue plasminogen activator (t-PA) (Homo sapiens)

>  <Parameter measured>
Enzyme Kass, t-Pa

>  <Observed measurement>
0.26 L/mol × 10^6

$$$$
>  <Compound>
Cl.Cn1c(C(=O)NC(CC2CCCCC2)C(=O)N2CCCC2C(=O)NC(C=O)CCCN=C(N)N)cc2ccccc21 [Example 5, NMI-D-Cha-Pro-Arg-H.HCl]

>  <Tgt>
tissue plasminogen activator (t-PA) (Homo sapiens)

>  <Parameter measured>
Enzyme Kass, t-Pa

>  <Observed measurement>
1.1 L/mol × 10^6

$$$$
>  <Compound>
CCCCS(=O)(=O)N[C@H](Cc1ccccc1)C(=O)N1CCC[C@H]1C(=O)N[C@H](C=O)CCCNC(=N)N.Cl [Example 10, n-Bu-SO2 -D-Phe-Pro-Arg-H.HCl]

>  <Tgt>
tissue plasminogen activator (t-PA) (Homo sapiens)

>  <Parameter measured>
Enzyme Kass, t-Pa

>  <Observed measurement>
0.83 L/mol × 10^6

$$$$

Provide each entry's Enzyme Kass, t-Pa from the list below.
1. Cl.N=C(N)NCCC[C@@H](C=O)NC(=O)[C@@H]1CCCN1C(=O)[C@@H](Cc1ccccc1)NC(=O)C(F)(F)F [Example 25, CF3 CO-D-Phe-Pro-Arg-H.HCl]
2. CCS(=O)(=O)N[C@@H](C(=O)N1CCC[C@H]1C(=O)N[C@H](C=O)CCCNC(=N)N)C1CCCCC1.Cl [Example 22, EtSO2 -D-Chg-Pro-Arg-H.HCl]
3. CCS(=O)(=O)N[C@H](CC1CCCCC1)C(=O)N1CCC[C@H]1C(=O)N[C@H](C=O)CCCNC(=N)N.Cl [Example 21, EtSO2 -D-Cha-Pro-Arg-H.HCl]

1. 0.17 L/mol × 10^6
2. 0.11 L/mol × 10^6
3. 0.73 L/mol × 10^6

Give me Enzyme Kass, t-Pa for each of these compounds, listed below.
1. Cc1noc(C)c1S(=O)(=O)N[C@H](Cc1ccccc1)C(=O)N1CCC[C@H]1C(=O)N[C@H](C=O)CCCNC(=N)N.Cl
2. Cl.N=C(N)NCCC[C@@H](C=O)NC(=O)[C@@H]1CCCN1C(=O)[C@@H](Cc1ccccc1)NS(=O)(=O)c1nccs1 [Example 19, 2-Thiazolyl-SO2 -D-Phe-Pro-Arg-H-HCl]

2.7 L/mol × 10^6
0.31 L/mol × 10^6
